- tested-target: T1, ALPI (screening and SPR/ELISA protein) (UniProt P09923 20-503, limits assumed)
- T1 sequence (looked up): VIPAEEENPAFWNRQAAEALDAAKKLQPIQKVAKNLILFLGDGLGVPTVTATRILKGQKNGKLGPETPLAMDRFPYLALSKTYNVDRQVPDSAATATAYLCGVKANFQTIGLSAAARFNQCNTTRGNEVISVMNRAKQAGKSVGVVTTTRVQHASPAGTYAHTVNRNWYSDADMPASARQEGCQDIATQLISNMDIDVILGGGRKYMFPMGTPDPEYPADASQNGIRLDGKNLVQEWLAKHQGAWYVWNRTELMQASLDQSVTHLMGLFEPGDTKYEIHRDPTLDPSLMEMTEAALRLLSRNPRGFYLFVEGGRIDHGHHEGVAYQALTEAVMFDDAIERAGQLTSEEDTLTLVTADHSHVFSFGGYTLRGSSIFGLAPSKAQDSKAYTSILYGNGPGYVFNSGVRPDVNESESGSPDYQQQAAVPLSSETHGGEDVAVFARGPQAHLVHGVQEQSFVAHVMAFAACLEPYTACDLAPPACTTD
- measurement-protocol: screen of rabbit B-cell clones by ELISA and FACS
measurement-kind: binding result

binder	measurement-kind	observed
AB2C103 (antibody, V domains shown, Rabbit antibody cloned from a single B cell) VH: QSLEESGGDLVKPGASLTLTCTASGFDFSSYYWICWVRQAPGKGLEWIACIYGGSSGSTYYATWAKGRFTISETSSTTVTLQMTSLTAADMATYFCARSLYTWRYADYAASTLNLWGPGTLVTVSS VL: AVLTQTPSPVSAAVGGTVSISCQSSQSVYNVNLLAWYQQKPGQPPKLLIYETSKLESGVPSRFSGSGSGTQFTLTISDVQCDDAATYYCAGGYSSSKDNSFGGGTEVVVK	binding result	no binding
AB1C36 (antibody, V domains shown, Rabbit antibody cloned from a single B cell) VH: QSLEESGGDLVKPGASLTLTCTASGFSFSSGYNICWVRQAPGKGLELIACIYTSSSGSTYYASWAKGRFTISKTSSTTVTLQMTSLTVADTATYFCARGEAYYAYGYVGYAYYHGAFDPWGPGTLVTVSS VL: DIVMTQTPASVEAGVGGTVTIKCQASHSISKYFSWYQQKIGQPPKLLIYEASTLASGVPSRFKGSGSGTQFTLTISDLECADAATYYCQSYYYGTSSSYAFGGGTEVVVK	binding result	no binding
AB1C10 (antibody, V domains shown, Rabbit antibody cloned from a single B cell) VH: QSLEESGGDLVKPGASLTLTCTASGFDFSSNGMCWVRQAPGKGLEWIACIYVDSSDNTNYASWVNGRFTISRTSSTTVTLQMTSLTAADTATYFCARGYGYVGSAMDLWGQGTLVTVSS VL: DIVMTQTPASVEAAVGGTVTIKCQASQSINNELSWYQQKPGQRPKLLIYGASTLESGVPSRFSGSGSGTEFTLTISDLECADAATYYCQSAYYSSSSSYANTFGGGTEVVVK	binding result	no binding
AB1C12 (antibody, V domains shown, Rabbit antibody cloned from a single B cell) VH: QSLEESGGDLVKPGASLTLTCTASGFSFSSSYWISWVRQAPGKGLEWIACIAIGSSGTTYYASWAKGRFTISKTSSTTVTLQMTSLTAADTATYFCARSGDGYTYVELWGPGTLVTVSS VL: DVVMTQTPASVSEPVGGTVTIKCQASQSISSYLAWYQQKPGQPPKLLIYRASTLASGVPSRFKGSGSGTQFTLTISDLECADAATYYCQNYYDIDDSDNTFGGGTEVVVK	binding result	no binding

Please look at the following binder next.
Input AB1C15 (antibody, V domains shown, Rabbit antibody cloned from a single B cell) VH: QSLEESGGDLVKPGASLTLTCTASGFSFSSSYYMCWVRQAPGKGLEWIACIYTTYGGTWYASWAKGRFTISKTSSTTVTLQMTSLTDADTATYFCARSSISDVTYFNLWGPGTLVTVSS VL: DIVMTQTPASVEAAVGGTVTIKCQASQSISNYLAWYQQKPGQPPELLIYRASTLESGVPSRFKGSGSGTGFTLTISDLECADAATYYCQSYYDNNNYAFGGGTEVVVK , output reported binding result.
no binding
